Each entry below carries its reported pIC50.
- Tested on: Trypanosoma brucei rhodesiense
- experimentSummary: Antiprotozoan activity against Trypanosoma brucei rhodesiense STIB900
- Assay type: functional, organism-based
// field semantics: pIC50 = negative decimal log of concentration (mol/L)

# count of solved cases: 4
{"compound": "CO/N=C(\\N)c1ccc(-c2ccc3nc(-c4ccc(/C(N)=N\\OC)cc4)cn3c2)cc1", "pIC50": 6.08}
{"compound": "CO/N=C(\\N)c1ccc(-c2cn3cc(-c4ccc(/C(N)=N\\OC)cc4)nc3c(C)c2C)cc1", "pIC50": 5.14}
{"compound": "Cc1cc2nc(-c3ccc(C(=N)N)cc3)cn2cc1-c1ccc(C(=N)N)cc1", "pIC50": 7.89}
{"compound": "Cc1cc(-c2ccc(C(=N)N)cc2)cn2cc(-c3ccc(C(=N)N)cc3)nc12", "pIC50": 7.42}

Exercise: State, in one line, measured pIC50 of N=C(N)c1ccc(-c2cn3c(n2)CCC(c2ccc(C(=N)N)cc2)C3)cc1 (stereo not given)
Key: 7.85

###

- System: Trypanosoma brucei rhodesiense
- experimentSummary: Antiprotozoan activity against Trypanosoma brucei rhodesiense STIB900
- Assay type: functional, organism-based
Recorded IC50, one value per entry.
Form entry: value (nM) — number only.

{"substanceSmiles": "CO/N=C(\\N)c1ccc(-c2cc(C)c3nc(-c4ccc(/C(N)=N\\OC)cc4)cn3c2)cc1", "IC50 / nM": 2370}
{"substanceSmiles": "N=C(N)c1ccc(-c2ccc3nc(-c4ccc(C(=N)N)cc4)cn3c2)cc1", "IC50 / nM": 7.5}
{"substanceSmiles": "N=C(N)c1ccc(-c2ccc(-c3ccc(C(=N)N)cn3)o2)cc1", "IC50 / nM": 6.5}
{"substanceSmiles": "Cc1c(-c2ccc(C(=N)N)cc2)cn2cc(-c3ccc(C(=N)N)cc3)nc2c1C", "IC50 / nM": 15}

Exercise: Quickly give me recorded IC50 for `CO/N=C(\N)c1ccc(-c2cn3cc(-c4ccc(/C(N)=N\OC)cc4)nc3cc2C)cc1`
Key: 1740

###

Survival by entry:
- Test system: Trypanosoma brucei rhodesiense
- experimentSummary: Antitrypanosomal activity against Trypanosoma brucei rhodesiense STIB900 infected mouse model assessed as survival at 25 mg/kg, po after 4 days
- Assay type: functional
Give the value, in units of days, as a plain number.

Examples with answers:
{"substanceSmiles": "CO/N=C(\\N)c1ccc(-c2ccc3nc(-c4ccc(/C(N)=N\\OC)cc4)cn3c2)cc1", "measureName": "Survival", "observed": 10.75}
{"substanceSmiles": "CO/N=C(\\N)c1ccc(-c2cn3cc(-c4ccc(/C(N)=N\\OC)cc4)nc3c(C)c2C)cc1", "measureName": "Survival", "observed": 15.5}

Exercise: Supply Survival value. Item: `CO/N=C(\N)c1ccc(-c2cn3cc(-c4ccc(/C(N)=N\OC)cc4)nc3cc2C)cc1`
Key: 14.5

###

- System: Trypanosoma brucei rhodesiense
- experimentSummary: Antitrypanosomal activity against Trypanosoma brucei rhodesiense STIB900 infected mouse model assessed as survival at 25 mg/kg, po after 4 days
- Type: functional
measureName: Survival

The following compounds have reported results that may help.
{"substanceSmiles": "CO/N=C(\\N)c1ccc(-c2ccc(-c3ccc(/C(N)=N/OC)cn3)o2)cc1", "target": "Trypanosoma brucei rhodesiense", "Survival": ">60 days"}
{"substanceSmiles": "CONC(=N)c1ccc(-c2ccc(-c3ccc(C(=N)NOC)cc3)o2)cc1", "target": "Trypanosoma brucei rhodesiense", "Survival": ">60 days"}

Now look at this one.
Exercise: Answer with reported Survival of `CO/N=C(\N)c1ccc(-c2cc(C)c3nc(-c4ccc(/C(N)=N\OC)cc4)cn3c2)cc1`
Key: >20.25 days
